target: Human Factor B (human) (UniProt P00751); experiment: cell-based or functional assay
Sequence (P00751 26-764 limits assumed): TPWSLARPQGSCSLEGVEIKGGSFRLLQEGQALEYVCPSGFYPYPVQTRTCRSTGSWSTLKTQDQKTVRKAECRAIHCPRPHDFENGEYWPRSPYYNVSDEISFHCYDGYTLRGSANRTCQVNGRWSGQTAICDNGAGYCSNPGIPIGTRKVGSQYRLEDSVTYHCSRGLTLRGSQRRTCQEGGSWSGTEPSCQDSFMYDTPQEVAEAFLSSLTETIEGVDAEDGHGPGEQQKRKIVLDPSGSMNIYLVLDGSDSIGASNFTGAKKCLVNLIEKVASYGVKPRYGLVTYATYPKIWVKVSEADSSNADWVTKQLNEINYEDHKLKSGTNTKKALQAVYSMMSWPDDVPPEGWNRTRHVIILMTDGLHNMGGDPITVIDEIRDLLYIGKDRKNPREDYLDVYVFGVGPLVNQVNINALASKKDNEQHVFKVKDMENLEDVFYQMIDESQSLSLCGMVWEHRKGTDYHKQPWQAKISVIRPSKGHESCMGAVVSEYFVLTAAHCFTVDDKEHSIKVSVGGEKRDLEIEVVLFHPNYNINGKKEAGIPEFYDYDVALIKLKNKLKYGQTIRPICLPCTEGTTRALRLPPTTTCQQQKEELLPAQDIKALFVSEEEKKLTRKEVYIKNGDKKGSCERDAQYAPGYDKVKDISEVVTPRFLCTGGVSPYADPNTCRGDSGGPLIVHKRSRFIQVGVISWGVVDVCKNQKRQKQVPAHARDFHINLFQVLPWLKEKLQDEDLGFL
measure.name: fB Cleavage EC50 (nM)
Please give a number only; it is taken to be in nM.

Some entries whose results are on file:
binder	fB Cleavage EC50 / nM
chymase C22S/P38Q/K40L/F41K/L99N/V138I/F173Y/D175S/A190S/V213A/S218I/A226R (enzyme) IIGGTESKPHSRPYMAYLEIVTSNGQSLKCGGFLIRRNFVLTAAHCAGRSITVTLGAHNITEEEDTWQKLEVIKQFRHPKYNTSTNHHDIMLLKLKEKASLTLAVGTLPFPSQFNFVPPGRMCRIAGWGRTGVLKPGSDTLQEVKLRLMDPQACSHYRSFDHNLQLCVGNPRKTKSSFKGDSGGPLLCAGVAQGIASYGRIDAKPPRVFTRISHYRPWINQILQAN	144
chymase C22S/P38Q/V138I/A190S/V213A/A226R (enzyme) IIGGTESKPHSRPYMAYLEIVTSNGQSKFCGGFLIRRNFVLTAAHCAGRSITVTLGAHNITEEEDTWQKLEVIKQFRHPKYNTSTLHHDIMLLKLKEKASLTLAVGTLPFPSQFNFVPPGRMCRIAGWGRTGVLKPGSDTLQEVKLRLMDPQACSHFRDFDHNLQLCVGNPRKTKSSFKGDSGGPLLCAGVAQGIASYGRSDAKPPRVFTRISHYRPWINQILQAN	1350

Here is another binder to look at.
Need fB Cleavage EC50 of chymase C22S/P38Q/K40A/F41K/L99N/V138I/D175H/A190S/V213A/S218V/A226R (enzyme) IIGGTESKPHSRPYMAYLEIVTSNGQSAKCGGFLIRRNFVLTAAHCAGRSITVTLGAHNITEEEDTWQKLEVIKQFRHPKYNTSTNHHDIMLLKLKEKASLTLAVGTLPFPSQFNFVPPGRMCRIAGWGRTGVLKPGSDTLQEVKLRLMDPQACSHFRHFDHNLQLCVGNPRKTKSSFKGDSGGPLLCAGVAQGIASYGRVDAKPPRVFTRISHYRPWINQILQAN , thanks. 121
